- Test method notes: binders of probe aHhip on microarray, primary screen, stem cell growth factor project, biochemical, small-molecule microarray, fluorescence 635/667 (AID 1087);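 further: score merges spot fluorescence at 667nm with spot signal to noise ratio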
- Condition set: higher = more signal
Classification by composite z-score | ranges: one: < -0.1; two: ≥ -0.1 and < 0.1; three: ≥ 0.1

Class for `C=C[C@@H](C)[C@@H](OC(=O)Nc1ccc(OC)cc1)c1ccc(O)c2ccccc12` ?
one

Field: class (composite z-score) — entry: C=CCC(OC(C)=O)[C@@H]1[C@@H](N(Cc2ccc(-c3ccccc3)cc2)C(=O)c2ccc(C)cc2)c2cc(OCCCO)ccc2N1C(=O)c1ccc2ccccc2n1 (stereo not given in full)
three

Please report the category associated with `CO[C@H]1O[C@H](CO)[C@@H](OC(=O)Nc2ccc(C(F)(F)F)cc2)[C@H](OC(=O)Nc2ccccc2)[C@@H]1OC(=O)Nc1ccccc1` , nothing else.
one

Form: Item = `Cc1ccc(S[C@]2(C(=O)NCc3ccccc3)CC(=O)N(Cc3cc(C(F)(F)F)cc(C(F)(F)F)c3)[C@@H]2c2ccc(CO)cc2)cc1` ; Class = ?
one

Tag the class for `COCCCNC(=O)[C@@]1(C)c2ccccc2C(=O)N(Cc2ccccc2)[C@H]1c1ccc(CO)cc1`
one

Could you tell me which band `CC(=O)NCCCC[C@@H]1NC(=O)[C@@H]2C[C@H](C(=O)NCCCCCC[N+](C)(C)C)[C@H](c3cccc(OCCO)c3)N2C1=O` belongs to?
two

Lab note: which band did `O=C1O[C@H](c2ccccc2)[C@H](c2ccccc2)N2[C@H]1[C@@H](C(=O)N1CCCCCCC1)[C@]1(C(=O)Nc3ccc(C#CC4=CCCCC4)cc31)[C@H]2c1ccc(O)cc1` land in?
three

State the band of `COCCn1c(C(=O)N(C)C)cc2c1C[C@H]1CN(C(=O)c3ccccc3)[C@@](Cc3ccc(F)cc3)(C(=O)OC)[C@@H]21`
two

Assign a category based on measured composite z-score for `Cc1ccc(N2C(=O)c3ccccc3[C@@H](C(=O)NCC(C)C)[C@@H]2c2ccc(CO)cc2)nc1` and give only the class name.
two

Band for the recorded composite z-score of `CC(C)N1C(=O)c2ccccc2[C@](C)(C(=O)NCCCN(C)C)[C@@H]1c1ccc(CO)cc1` ?
two

Kindly state the category for this molecule: O=C1C2C=CC(C(O)c3ccc(Br)cc3)N(n3cnnc3)C2C(=O)N1Cc1ccccc1 (stereo not given)
three

Which composite z-score category applies to `[N-]=[N+]=NCc1ccccc1[C@@H]1OC(c2ccc(OCCCO)cc2)=N[C@]1(Cc1ccccc1)C(=O)O` here?
two

Band for the recorded composite z-score of `CCCC[C@@H]1C[C@H]1[C@@H](NC(=O)c1ccccc1)c1ccccc1` ?
three

Assign a category based on measured composite z-score for `COCCOC(=O)N1C(=O)[C@@]2(c3cc(C#CC4=CCCCC4)ccc31)[C@H](C(=O)N1CCN(c3ncccn3)CC1)[C@H]1C(=O)O[C@H](c3ccccc3)[C@H](c3ccccc3)N1[C@@H]2c1ccc(OCCO)cc1` and give only the class name.
three

* * *

Answer each item with its documented z-score.
- Test method notes: resazurin metabolic signal in A549 cells – cell-based, resazurin fluorescence, 24 h, PK04 Diversity Set, profiling panel (AID 1171); further: test concentration not given here
- Condition set: A549 viability, higher = more signal, called active from +8 up or from −8 down
Calls of active or inactive are those of the source.

Quick check: z-score of `C#C[C@H]1Oc2ccccc2S(=O)(=O)N2CCC[C@@H]12` ?
-0.424 (inactive)

Look up z-score: `O=C(NCC(F)(F)F)[C@@H]1c2ccccc2C(=O)N(Cc2ccccc2)[C@H]1c1ccc(CO)cc1`
0.176 (inactive)

Data request, read-out z-score, for O=C1NC(=O)C2C1C=CC(C(O)c1cccs1)N2Nc1ccccn1 (stereo not given)
-1.06 (inactive)

# get_value(readout='z-score', item= O=C1C2C=CC(C(O)c3ccc(Br)cc3)N(n3cnnc3)C2C(=O)N1Cc1ccccc1 (stereo not given) )
0.0637 (inactive)

Given the compound `CCCNC(=O)[C@@]1(c2ccc([N+](=O)[O-])cc2)CC(=O)N(CC23CC4CC(CC(C4)C2)C3)[C@@H]1c1ccc(CO)cc1I` , what is its reported z-score?
-3.39 (inactive)

Fill in: z-score of `CCOC(=O)C[C@H]1[C@H](OC(=O)c2ccc(C(=O)c3ccccc3)cc2)[C@@H](NC(=O)c2ccc3ccccc3n2)c2cc(OCCCO)ccc2N1C(=O)c1ccc2ccccc2n1` is ___
1.04 (inactive)

Could you share which z-score value was measured for `C=C(/C(=C/C[C@@H](OC(=O)c1ccncc1)c1ccc(CO)o1)c1cc(C(=O)OC)ccc1OC)C(C)C` ?
-0.0675 (inactive)

Data request, read-out z-score, for CN1C(=O)C2C=CC(C(O)C(C)(C)C)N(Nc3ccccc3)C2C1=O (stereo not given)
-0.463 (inactive)

Entry `COC(=O)[C@@]1(Cc2ccc(OC)cc2)[C@H]2c3cc(C(=O)N4CCCC4)n(CCN4CCOCC4)c3C[C@H]2CN1C(=O)c1ccccc1` : reported z-score = ?
0.0452 (inactive)

Look at this compound and give its reported z-score. C=CCC(OC(C)=O)[C@@H]1[C@@H](N(Cc2cc3ccccc3o2)C(=O)c2cccc3ccccc23)c2cc(OCCCO)ccc2N1C(=O)Cc1ccc2ccccc2c1 (stereo not given in full)
-1.05 (inactive)

Consider the compound shown here: `CCOC(=O)C1=CC[C@@H](c2cccc(Cl)c2)N(S(=O)(=O)c2ccc(C)cc2)[C@H]1c1ccc(C#N)cc1` What is its recorded z-score?
1.27 (inactive)

Fill in the blank: the reported z-score of `COc1ccc([Si](C)(C)[C@H]2[C@H](CCO)O[C@@]3(C(=O)N(Cc4cccc(N5C(=O)c6cccc7cccc5c67)c4)c4ccccc43)[C@@H]2C)cc1` is ____.
-2.92 (inactive)

Need z-score of O=C1OCC=C[C@H]2OC34C=CCN(CCN5CCOCC5)C(=O)[C@H]3N(CCCCCCO)C(=O)[C@@H]4[C@@H]12 (stereo not given in full) , thanks.
-0.352 (inactive)

What value of z-score has been recorded for this entry: `O=C1O[C@@H](c2ccccc2)[C@@H](c2ccccc2)N2[C@@H](c3ccc(O)cc3)[C@]3(C(=O)Nc4ccccc43)[C@@H](C(=O)N3CCCCCCC3)[C@H]12`
-1.09 (inactive)

If you can, please state the reported z-score value of `COc1ccc(C(=O)Nc2cccc(CN3C(=O)[C@@]4(O[C@@H](CC(=O)N5Cc6ccccc6C[C@H]5CO)[C@H]([Si](C)(C)c5ccc(OC)cc5)[C@H]4C)c4ccccc43)c2)cc1` .
-0.967 (inactive)

* * *

- Study system: Fibroblast growth factor 2 (Homo sapiens) (UniProt P09038)
- Sequence (P09038 whole entry, looked up): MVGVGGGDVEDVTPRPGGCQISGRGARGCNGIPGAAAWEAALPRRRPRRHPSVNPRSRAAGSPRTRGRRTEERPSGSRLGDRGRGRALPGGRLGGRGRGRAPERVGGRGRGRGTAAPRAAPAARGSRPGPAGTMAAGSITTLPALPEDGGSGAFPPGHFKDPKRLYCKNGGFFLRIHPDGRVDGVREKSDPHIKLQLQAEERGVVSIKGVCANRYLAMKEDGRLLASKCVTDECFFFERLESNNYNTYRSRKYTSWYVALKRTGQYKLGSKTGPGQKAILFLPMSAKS
- Test method notes: basic fibroblast growth factor binding to printed compounds – biochemical, small-molecule microarray, 635/667 nm fluorescence, primary screen (AID 1133)
- Condition set: FGF2, fluorescence 635/667, higher = more signal
Quantity kind: composite z-score
Just the number, please, no unit after it.

For the molecule shown here, `CC(C)N1C(=O)c2ccccc2[C@](C)(C(=O)NC2CC2)[C@@H]1c1ccc(CO)cc1` , give the reported composite z-score.
0.507

Consider the molecule `CC(C)[C@H]1COC(=O)N1C(=O)[C@H]1[C@@H](c2ccccc2)N(c2ccccc2)O[C@@H]1C` and give its measured composite z-score.
0.57

Return reported composite z-score; argument: `Cc1ccc(S[C@]2(C(=O)NCCCN(C)C)CC(=O)N(C(C)C)[C@@H]2c2ccc(CO)cc2I)cc1`
-1.01

Which composite z-score is reported for this molecule? `COCC1=C([C@H](O)CCc2ccccc2)[C@H](CO)[C@@H]2C(=O)N(Cc3ccccc3)C(=O)[C@@H]2C1`
0.0451

Could you tell me which composite z-score is on file for `O=C1O[C@@H](c2ccccc2)[C@@H](c2ccccc2)N2[C@@H](c3ccc(O)cc3)[C@]3(C(=O)Nc4ccccc43)[C@@H](C(=O)NC[C@H](O)c3ccccc3)[C@H]12` ?
0.797

Suppose we examine the molecule `COc1ccc(C#Cc2ccc3c(c2)[C@]2(C(=O)N3)[C@H](C(=O)N3CCN(c4ncccn4)CC3)[C@H]3C(=O)O[C@H](c4ccccc4)[C@H](c4ccccc4)N3[C@@H]2c2ccc(O)cc2)cc1` ; what composite z-score value has been reported?
0.485

Could you tell me which composite z-score is on file for `C=CCOC(=O)[C@H]1[C@@H]2C(=O)O[C@@H](c3ccccc3)[C@@H](c3ccccc3)N2[C@@H](c2ccc(OCCOC(=O)[C@@H]3C[C@@H]4C(=O)NCC(=O)N4[C@@H]3c3ccc(O)cc3)cc2)[C@]12C(=O)Nc1ccc(I)cc12` ?
1.65

State the recorded composite z-score for this entry: `C=C(COC)C(=O)CC[C@@H](OC(=O)c1ccccc1-c1ccccc1C(=O)O)c1ccc(CO)o1`
1.81

I'd like to know its composite z-score. The molecule in question is `COc1ccc([Si](C)(C)[C@H]2[C@H](CCO)O[C@@]3(C(=O)N(Cc4ccccc4)c4ccc(N5C(=O)COc6ccccc65)cc43)[C@@H]2C)cc1`
-0.116

Which composite z-score reading was recorded for the molecule `C=C[C@H](C)[C@H](O)c1ccc(OCCO)cc1` ?
-1.2

Dear colleague, I am looking for the recorded composite z-score of the following molecule: `C=CCOC(=O)[C@@H]1[C@H]2C(=O)O[C@H](c3ccccc3)[C@H](c3ccccc3)N2[C@H](c2ccc(OCCOC(=O)[C@H]3C[C@H]4C(=O)N[C@@H](Cc5ccccc5)C(=O)N4[C@H]3c3ccc(O)cc3)cc2)[C@@]12C(=O)Nc1ccc(I)cc12`
1.39

Which composite z-score is reported for this molecule? `CC(=O)N1Cc2ccccc2C[C@@]2(N=C(c3ccc(OCCCO)cc3)O[C@H]2c2ccccc2)C1=O`
1.66

Look at this molecule and give its reported composite z-score. `O=C(CS)NCCCCCNC(=O)[C@H]1C[C@H]2C(=O)N[C@@H](Cc3ccccc3)C(=O)N2[C@H]1c1cccc(OCCO)c1`
1.77

Which composite z-score value is on record for `COCCOC(=O)N1C(=O)[C@@]2(c3cc(C#CCCO)ccc31)[C@H](C(=O)NC[C@H](O)c1ccccc1)[C@H]1C(=O)O[C@H](c3ccccc3)[C@H](c3ccccc3)N1[C@@H]2c1ccc(OCCO)cc1` ?
1.24

I have this molecule here, `O=C1O[C@@H](c2ccccc2)[C@@H](c2ccccc2)N2[C@@H](c3ccc(O)cc3)[C@]3(C(=O)Nc4ccc(C#CCCO)cc43)[C@@H](C(=O)N3CCCCCCC3)[C@H]12` , and I need its recorded composite z-score.
0.94

What measured composite z-score goes with `COc1ccc(C#Cc2ccc3c(c2)[C@]2(C(=O)N3)[C@H](C(=O)N3CCc4cc(OC)c(OC)cc4C3)[C@H]3C(=O)O[C@H](c4ccccc4)[C@H](c4ccccc4)N3[C@@H]2c2ccc(OCCO)cc2)cc1` ?
1.24

Give its composite z-score value. Item: `CC[C@@H]1C=C(C(=O)O)[C@H](c2ccc(C(C)C)cc2)N1S(=O)(=O)c1ccc(C)cc1`
0.52

What composite z-score value was documented for this molecule, C=CCC(OC(C)=O)[C@@H]1[C@@H](N(Cc2cc3ccccc3o2)C(=O)c2cccc3ccccc23)c2cc(OCCCO)ccc2N1C(=O)Cc1ccc2ccccc2c1 (some centres not stated) ?
0.439

// lookup composite z-score for `CCCNC(=O)[C@@]1(C)c2ccccc2C(=O)N(C(C)C)[C@H]1c1ccc(CO)cc1`
-0.343

Returns the measured composite z-score for the input molecule. Input: `C=CCN1C(=O)[C@@]2(O[C@@H](CCO)[C@H]([Si](C)(C)c3ccc(OC)cc3)[C@H]2C)c2cc(NC(C)=O)ccc21`
1.45

// lookup composite z-score for `CCCNC(=O)[C@@]1(C)c2ccccc2C(=O)N(Cc2cc(F)cc(C(F)(F)F)c2)[C@H]1c1ccc(CO)cc1`
-0.812

Which value of composite z-score has been reported for CN1C(=O)C2C(C1=O)C1C=C(c3ccc(CO)cc3)C2C(C2CC2)N1Cc1sc2ccccc2c1Cl (configuration not stated) in the records?
1.06

Please report the recorded composite z-score for `COC(=O)[C@@]1(Cc2ccc(OC)cc2)[C@H]2c3cc(C(=O)N(C)C)n(Cc4ccc(OC)c(OC)c4)c3C[C@H]2CN1C(=O)c1ccccc1` .
-0.3

Need composite z-score of CC(c1ccccc1)C(O)C1C=CC2C(=O)N(Cc3ccccc3)C(=O)C2N1n1cnnc1 (configuration not stated) , thanks.
0.408

Which composite z-score value is on record for `C=CC[C@@]1(C(=O)NCc2ccccc2)N=C(c2ccc(OCCCO)cc2)O[C@@H]1c1ccccc1CN=[N+]=[N-]` ?
-0.204

Reported composite z-score for `CCCC[C@@H]1C[C@H]1[C@@H](NC(=O)c1ccco1)c1ccccc1` : what is it?
-2.17

Need composite z-score, item `CC(C)C(=C=CC[C@H](O)c1ccccc1OCCO)CCO`
0.465
